tested system: full-length human RORγt (Homo sapiens (Human), UniProt P51449)
Sequence (P51449 other isoform, or with tags, fused parts or gaps): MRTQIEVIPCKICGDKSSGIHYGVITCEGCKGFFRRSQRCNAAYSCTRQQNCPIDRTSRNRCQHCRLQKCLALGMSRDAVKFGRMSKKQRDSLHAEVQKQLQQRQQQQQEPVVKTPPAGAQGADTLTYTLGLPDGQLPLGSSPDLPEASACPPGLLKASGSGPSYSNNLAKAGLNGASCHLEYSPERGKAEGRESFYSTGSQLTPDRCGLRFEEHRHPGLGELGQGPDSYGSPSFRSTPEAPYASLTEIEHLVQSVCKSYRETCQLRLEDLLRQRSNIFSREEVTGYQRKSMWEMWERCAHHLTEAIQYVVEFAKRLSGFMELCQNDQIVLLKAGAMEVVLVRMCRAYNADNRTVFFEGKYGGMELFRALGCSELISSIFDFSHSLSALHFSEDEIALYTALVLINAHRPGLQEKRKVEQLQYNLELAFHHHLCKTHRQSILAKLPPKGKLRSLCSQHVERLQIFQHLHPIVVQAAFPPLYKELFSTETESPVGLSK
test details: RORγt (full-length human) reporter assay, conditions A or B, HEK293T cells
Type: cell-based
assay context: HEK-293T; 0.67 μM compound concentration (footnote ****); read-out: RORγt (FL) Reporter Assay A or B, % inhibition
Below, each entry is listed alongside its reported inhibition at 0.67 µM.
Kindly format the answer as number then unit.

Solved entries:
{"compound": "CCn1nc(C(=O)NC[C@]2(O)CC[C@@H](S(C)(=O)=O)CC2)c(Cl)c1-c1ccc(CC(C(F)(F)F)C(F)(F)F)cc1OC", "inhibition at 0.67 µM": "103%"}
{"compound": "CCn1nc(C(=O)NC[C@H]2CC[C@H](S(C)(=O)=O)CC2)c(Cl)c1-c1ccc(N[C@H](C)C(F)(F)F)cc1Cl", "inhibition at 0.67 µM": "102%"}

Below: the item to evaluate.
Task: // query inhibition at 0.67 µM value for entry CCn1nc(C(=O)NC[C@@H]2CC[C@@H](S(C)(=O)=O)CO2)c(Cl)c1-c1ccc(CC(C)(C)C(F)(F)F)cc1OC(F)F (single isomer, unassigned)
Result: 105%
